System: Streptococcus pneumoniae
ASSAY COMMENT: Minimum inhibitory concentration was evaluated in vitro against Streptococcus pneumoniae SV-1
Type: functional
MIC by entry:
The reply should be a number in µg/mL, with the unit left off.

Consider the worked cases shown below.
1. CCN[C@@H](C)[C@@H]1CCN(c2c(F)c(N)c3c(=O)c(C(=O)O)cn(C4CC4)c3c2F)C1 (stereo in doubt; 32H-S,S) ... 0.05
2. CN[C@H](C)[C@H]1CCN(c2cc3c(cc2F)c(=O)c(C(=O)O)cn3C2CC2)C1 ... 0.2
3. C[C@@H](N)[C@H]1CCN(c2nc3c(cc2F)c(=O)c(C(=O)O)cn3C2CC2)C1 (racemic) ... 0.05

Exam item: What is its MIC for Streptococcus pneumoniae? Entry: CCN[C@@H](C)[C@@H]1CCN(c2c(F)c(N)c3c(=O)c(C(=O)O)cn(C4CC4)c3c2F)C1 (stereo in doubt; 32H-S,R)
Marked response: 0.013

All figures here come from ChEMBL document CHEMBL1126988.
